Assay: Resuscitation from a toxic bupivacaine dose with lipid emulsion (protocol 2)
Conditions: male, Sprague-Dawley, rat, in vivo, iv, resuscitation with saline infusion after iv bupivacaine bolus; probit analysis
metric name: LD50 at 5 min (mg/kg)
Write the value in mg/kg as a bare number.

Record summary for CCCCN1CCCCC1C(=O)Nc1c(C)cccc1C (racemic) : reported LD50 at 5 min = 12.5
